- System: RAW264.7
- test method notes: Inhibition of osteoclastogenesis in RANKL-stimulated mouse RAW264.7 cells assessed as mature osteoclasts containing 3 or more nuclei at 10 uM after 3 days by using TRAP staining
- Assay type: functional, cell-based
Active and inactive are the calls of the source. No cut-off for these calls is given here.

{"input smiles": "O=P(O)(O)C(O)(CCCCOc1no[n+]([O-])c1S(=O)(=O)c1ccccc1)P(=O)(O)O", "Activity": "Active"}
{"input smiles": "CN(CCCC(O)(P(=O)(O)O)P(=O)(O)O)Cc1nonc1C(N)=O", "Activity": "Active"}
{"input smiles": "Cc1nonc1CN(C)CCCC(O)(P(=O)(O)O)P(=O)(O)O", "Activity": "Active"}
